Target: rat CB-1 receptor (Rattus norvegicus)
Construct: The tissue obtained from the brain of SD rats was homogenized; from tissue; host or cells: brain of SD rats (membrane pellet of homogenate)
Test Details: rat CB-1 receptor binding protocol with [3H]CP-55940
Test Context: [3H]CP-55940, brain tissue of SD rats, 30 °C for 60 min; read-out: IC50
pIC50: −log10 of the molar value.
Property Measured: pIC50

// known answers, use as guide
Molecule: CCc1c(-c2nnc(C3(c4ccc(Cl)cc4)CC3)s2)nc(-c2ccc(Cl)cc2Cl)n1-c1ccc(Br)cc1
pIC50: 8.34

Molecule: CC(C)c1c(-c2nnc(C3(c4ccccc4)CC3)o2)nc(-c2ccc(Cl)cc2Cl)n1-c1ccc(Br)cc1
pIC50: 7.99

Molecule: Clc1ccc(-n2c(-c3ccc(Cl)cc3Cl)nc(-c3nnc(C4(c5ccc(Cl)cc5)CC4)o3)c2Cn2cncn2)cc1
pIC50: 8.82

Molecule: CCCc1c(-c2nnc(C(C)(C)C)o2)nc(-c2ccc(Cl)cc2Cl)n1-c1ccc(Br)cc1
pIC50: 7.15

(A) CCCc1c(-c2nnc(C3CCCCC3)o2)nc(-c2ccc(Cl)cc2Cl)n1-c1ccc(Cl)cc1
(B) Cc1c(-c2nnc(C3CCCCCC3)o2)nc(-c2ccc(Cl)cc2Cl)n1-c1ccc(Cl)cc1
(C) CCc1c(-c2nnc(C3(c4ccc(Cl)cc4)CCC3)s2)nc(-c2ccc(Cl)cc2Cl)n1-c1ccc(Br)cc1
(D) FC(F)(F)C1(c2nnc(-c3nc(-c4ccc(Cl)cc4Cl)n(-c4ccc(Br)cc4)c3Cn3cncn3)s2)CCC1
(E) Cc1c(-c2nnc(C3(C(F)(F)F)CCC3)s2)nc(-c2ccc(Cl)cc2Cl)n1-c1ccc(Br)cc1
Problem: Please list these molecules in decreasing order of pIC50. Labels, requested order.
Result: D, C, E, B, A

====

Target: rat CB-1 receptor (Rattus norvegicus, UniProt P20272)
Construct: The tissue obtained from the brain of SD rats was homogenized; from tissue; host or cells: brain of SD rats (membrane pellet of homogenate)
Sequence (P20272 whole entry): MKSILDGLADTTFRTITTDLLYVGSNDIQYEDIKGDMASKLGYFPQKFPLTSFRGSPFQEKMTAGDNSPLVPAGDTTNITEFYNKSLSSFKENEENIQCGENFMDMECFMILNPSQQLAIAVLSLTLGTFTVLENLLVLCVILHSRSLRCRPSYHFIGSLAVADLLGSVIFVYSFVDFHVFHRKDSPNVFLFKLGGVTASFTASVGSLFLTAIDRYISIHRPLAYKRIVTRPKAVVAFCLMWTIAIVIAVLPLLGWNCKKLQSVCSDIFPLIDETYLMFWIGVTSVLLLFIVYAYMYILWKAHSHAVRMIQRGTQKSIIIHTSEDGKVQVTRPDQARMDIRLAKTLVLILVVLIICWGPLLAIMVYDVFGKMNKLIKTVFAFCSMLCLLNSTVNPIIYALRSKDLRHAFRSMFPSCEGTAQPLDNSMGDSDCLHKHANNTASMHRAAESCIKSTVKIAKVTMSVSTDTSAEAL
Test Details: rat CB-1 receptor binding protocol with [3H]CP-55940
Test Context: [3H]CP-55940, brain tissue of SD rats, 30 °C for 60 min; read-out: IC50
Property Measured: IC50 (nM)

Sample Smiles: CCc1c(-c2nnc(C(C)(C)C)s2)nc(-c2ccc(Cl)cc2Cl)n1-c1ccc(Cl)cc1
Recorded Result: 15.8

Sample Smiles: FC(F)(F)C1(c2nnc(-c3nc(-c4ccccc4Cl)n(-c4ccc(Br)cc4)c3Cn3cncn3)o2)CCC1
Recorded Result: 3.36

Sample Smiles: CCCc1c(-c2nnc(C3(c4ccc(Cl)cc4)CCC3)s2)nc(-c2ccc(Cl)cc2Cl)n1-c1ccc(Br)cc1
Recorded Result: 1.79

Sample Smiles: Cc1c(-c2nnc(C3(C(F)(F)F)CC3)o2)nc(-c2ccccc2Cl)n1-c1ccc(Br)cc1
Recorded Result: 18.6

(1) Cc1c(-c2nnc(C3CCCC3)s2)nc(-c2ccc(Cl)cc2Cl)n1-c1ccc(Cl)cc1
(2) Cc1c(-c2ncc(CC(C)C)s2)nc(-c2ccc(Cl)cc2Cl)n1-c1ccc(Cl)cc1
(3) CCCc1c(-c2nnc(C3(c4ccc(Cl)cc4)CC3)s2)nc(-c2ccc(Cl)cc2Cl)n1-c1ccc(Br)cc1
Problem: Arrange items by their IC50 values in increasing order. Labels, requested order.
Result: 3, 1, 2
(3: 4.48 nM, 1: 10.8 nM, 2: 46.4 nM)

====

Target: rat CB-1 receptor (Rattus norvegicus, UniProt P20272)
Construct: The tissue obtained from the brain of SD rats was homogenized; from tissue; host or cells: brain of SD rats (membrane pellet of homogenate)
Test Details: rat CB-1 receptor binding protocol with [3H]CP-55940
Test Context: [3H]CP-55940, brain tissue of SD rats, 30 °C for 60 min; read-out: IC50
pIC50: −log10 of the molar value.
Property Measured: pIC50

// known answers, use as guide
Molecule: CCCc1c(-c2nnc(C(C)(C)C)o2)nc(-c2ccc(Cl)cc2Cl)n1-c1ccc(Cl)cc1
pIC50: 7.72
//
Molecule: CCCCC(C)c1nnc(-c2nc(-c3ccc(Cl)cc3Cl)n(-c3ccc(Cl)cc3)c2C)s1 (stereo not shown)
pIC50: 7.82
//
Molecule: CCC(C)c1nnc(-c2nc(-c3ccc(Cl)cc3Cl)n(-c3ccc(Cl)cc3)c2C)o1 (stereo not shown)
pIC50: 7.40
//
Molecule: Cc1c(-c2nnc(C(C)(C)C)s2)nc(-c2ccc(Cl)cc2Cl)n1-c1ccc(Br)cc1
pIC50: 8.46
//
Molecule: Cc1c(-c2ncc(CC(C)C)o2)nc(-c2ccc(Cl)cc2Cl)n1-c1ccc(Cl)cc1
pIC50: 7.88

(1) CCCCC(C)c1nnc(-c2nc(-c3ccc(Cl)cc3Cl)n(-c3ccc(Cl)cc3)c2C)o1 (stereo not shown)
(2) CC(C)c1c(-c2nnc(C(C)(C)C)s2)nc(-c2ccc(Cl)cc2Cl)n1-c1ccc(Br)cc1
(3) CCc1cnc(-c2nc(-c3ccc(Cl)cc3Cl)n(-c3ccc(Cl)cc3)c2C)o1
Problem: Arrange items by their pIC50 values in increasing order. Labels, requested order.
Result: 3, 1, 2
(3: 7.08, 1: 7.89, 2: 8.19)

(1) Cc1c(-c2ncc(C3CCCCC3)o2)nc(-c2ccc(Cl)cc2Cl)n1-c1ccc(Cl)cc1
(2) CCCC(C)c1nnc(-c2nc(-c3ccc(Cl)cc3Cl)n(-c3ccc(Cl)cc3)c2CC)o1 (stereo not shown)
Problem: // which entry has the larger pIC50 value, 1 or 2 ? Answer with the label corresponding to your selection.
Result: 2
(2: 7.94, 1: 7.10)

(1) CCc1c(-c2nc(C(C)(C)C)co2)nc(-c2ccc(Cl)cc2Cl)n1-c1ccc(Br)cc1
(2) CCCc1c(-c2nnc(C3(c4ccc(Cl)cc4)CC3)o2)nc(-c2ccc(Cl)cc2Cl)n1-c1ccc(Cl)cc1
(3) CC(C)c1c(-c2nnc(C3(c4ccccc4)CC3)s2)nc(-c2ccc(Cl)cc2Cl)n1-c1ccc(Cl)cc1
(4) Clc1ccc(C2(c3nnc(-c4nc(-c5ccc(Cl)cc5Cl)n(-c5ccc(Br)cc5)c4Cn4cncn4)s3)CC2)cc1
(5) Cc1c(-c2nnc(C3CCCCC3)o2)nc(-c2ccc(Cl)cc2Cl)n1-c1ccc(Cl)cc1
Problem: Please list these molecules in decreasing order of pIC50. Labels, requested order.
Result: 4, 3, 2, 1, 5
(4: 8.41, 3: 8.12, 2: 7.82, 1: 7.52, 5: 6.94)

====

Target: rat CB-1 receptor (Rattus norvegicus, UniProt P20272)
Construct: The tissue obtained from the brain of SD rats was homogenized; from tissue; host or cells: brain of SD rats (membrane pellet of homogenate)
Test Details: rat CB-1 receptor binding protocol with [3H]CP-55940
Test Context: [3H]CP-55940, brain tissue of SD rats, 30 °C for 60 min; read-out: IC50
pIC50: −log10 of the molar value.
Property Measured: pIC50

Molecule: CCc1c(-c2nnc(C3CCC3)s2)nc(-c2ccc(Cl)cc2Cl)n1-c1ccc(Cl)cc1 [Example 103]
pIC50: 7.79

(a) CCc1c(-c2nnc(C3(C(F)(F)F)CCC3)s2)nc(-c2ccc(Cl)cc2Cl)n1-c1ccc(Br)cc1 [Example 140]
(b) CCc1c(-c2nnc(C3(c4ccc(Cl)cc4)CCCC3)o2)nc(-c2ccc(Cl)cc2Cl)n1-c1ccc(Br)cc1 [Example 45]
Problem: // which entry has the larger pIC50 value, a or b ? Answer with the label corresponding to your selection.
Result: a
(a: 8.17, b: 7.94)

====

Target: rat CB-1 receptor (Rattus norvegicus)
Construct: The tissue obtained from the brain of SD rats was homogenized; from tissue; host or cells: brain of SD rats (membrane pellet of homogenate)
Test Details: rat CB-1 receptor binding protocol with [3H]CP-55940
Test Context: [3H]CP-55940, brain tissue of SD rats, 30 °C for 60 min; read-out: IC50
pIC50: −log10 of the molar value.
Property Measured: pIC50

// known answers, use as guide
Compound: Cc1c(-c2nnc(C3(C(F)(F)F)CC3)o2)nc(-c2ccc(Cl)cc2Cl)n1-c1ccc(Br)cc1
pIC50: 7.81
--
Compound: CCCc1c(-c2nnc(C3(c4ccc(Cl)cc4)CC3)o2)nc(-c2ccc(Cl)cc2Cl)n1-c1ccc(Br)cc1
pIC50: 7.72
--
Compound: CCCc1c(-c2nnc(C3(c4ccccc4)CC3)s2)nc(-c2ccc(Cl)cc2Cl)n1-c1ccc(Br)cc1
pIC50: 7.88
--
Compound: Cc1c(-c2nnc(C3CCC3)s2)nc(-c2ccc(Cl)cc2Cl)n1-c1ccc(Br)cc1
pIC50: 7.56
--
Compound: Cc1c(-c2nnc(C(C)(C)C)s2)nc(-c2ccc(Cl)cc2Cl)n1-c1ccc(Cl)cc1
pIC50: 7.69

(P) CCCc1c(-c2nnc(C3CCC3)o2)nc(-c2ccc(Cl)cc2Cl)n1-c1ccc(Cl)cc1
(Q) CCc1c(-c2nnc(C(C)CC)s2)nc(-c2ccc(Cl)cc2Cl)n1-c1ccc(Cl)cc1 (stereo not drawn)
(R) CCCc1c(-c2nnc(C3CCC3)s2)nc(-c2ccc(Cl)cc2Cl)n1-c1ccc(Br)cc1
(S) CCc1c(-c2nnc(C3(C(F)(F)F)CC3)o2)nc(-c2ccccc2Cl)n1-c1ccc(Br)cc1
Problem: Please list these compounds in decreasing order of pIC50. Labels, requested order.
Result: Q, S, R, P

(1) CCc1c(-c2nnc(C3(c4ccc(OC)cc4)CC3)s2)nc(-c2ccc(Cl)cc2Cl)n1-c1ccc(Br)cc1
(2) CCc1cnc(-c2nc(-c3ccc(Cl)cc3Cl)n(-c3ccc(Cl)cc3)c2C)s1
(3) Cc1c(-c2ncc(C(C)C)o2)nc(-c2ccc(Cl)cc2Cl)n1-c1ccc(Cl)cc1
(4) Cc1c(-c2nnc(C3CCC3)s2)nc(-c2ccc(Cl)cc2Cl)n1-c1ccc(Cl)cc1
Problem: Please list these compounds in decreasing order of pIC50. Labels, requested order.
Result: 1, 3, 4, 2
(1: 8.04, 3: 7.58, 4: 7.37, 2: 7.15)

(I) CCc1c(-c2nnc(C3(C(F)(F)F)CC3)s2)nc(-c2ccccc2Cl)n1-c1ccc(Br)cc1
(II) CCC(CC)c1nnc(-c2nc(-c3ccc(Cl)cc3Cl)n(-c3ccc(Cl)cc3)c2C)s1
(III) Cc1c(-c2nc(C(C)(C)C)co2)nc(-c2ccc(Cl)cc2Cl)n1-c1ccc(Cl)cc1
Problem: Please list these compounds in decreasing order of pIC50. Labels, requested order.
Result: I, II, III
(I: 7.94, II: 7.71, III: 7.05)
